System: pediatric T-ALL patient cell samples
Assay: Viability assays with T-ALL patient samples
Type: cell-based, human
Conditions: patient sample 3852, three-day assay; read-out: IC50
quantity-measured: IC50 (µM)
Please state the figure in µM; there is no need to write the unit.

Q: Answer briefly: IC50 recorded on pediatric T-ALL patient cell samples for CCc1cccc(CC)c1NC(=O)c1ccn2c1CCc1cnc(Nc3ccc(N4CCN(C)CC4)cc3OC)nc1-2 [NTRC 0066-0]
A: 4.9

* * *

# Lookup of reported pIC50 keyed by entry
Test system: post-tetraploid HPT1 cells
Experiment: Cell proliferation assay, post-tetraploid HPT1
Format: cell-based, human
Conditions: HPT1, five days, geometric average of three experiments
Keep it numeric: pIC50 is minus log10 of the concentration in mol/L.

Cc1cc(N2CCOCC2)ccc1Nc1nc(NC2CCCCC2)c2[nH]cnc2n1 [MPI-047605] : 6.68

Q: Please indicate pIC50 recorded for CCc1cccc(CC)c1NC(=O)c1ccn2c1CCc1cnc(Nc3ccc(N4CCN(C)CC4)cc3OC)nc1-2 [NTRC 0066-0]
A: 7.40
